- System: HCV replicon cells
- Assay Name: Cell-based HCV replicon assay (replicon RNA level by real time PCR, Taqman)
- Setup Conditions: Hepatitis C virus, 72 h, HCV replicon cells, harvested day 3, replicon RNA by real time PCR; reported as range class; read-out: EC90 (μM) range
Quantity Name: EC90

In the examples that follow, each entry is paired with its recorded EC90.
Nc1nc(Cl)c(-c2nc3cc(C(F)(F)F)ccc3s2)c(N[C@@H]2C[C@H](CO)[C@@H](O)[C@H]2O)n1; 0.5 to 5 µM
CCc1cc2cc(-c3c(Cl)nc(N)nc3N[C@@H]3C[C@H](CO)[C@@H](O)[C@H]3O)oc2c(CC)n1; < 0.5 µM
Nc1nc(Cl)c(-c2ccc(C=O)s2)c(N[C@@H]2C[C@H](CO)[C@@H](O)[C@H]2O)n1; > 5 µM

// each listed compound needs a value for EC90
1. CCc1nc(N(C)C)nc(N[C@@H]2C[C@H](CO)[C@@H](O)[C@H]2O)c1-c1nc2ccccc2s1
2. Nc1nc(Cl)c(-c2nc3ccc(OCc4ccccc4)cc3s2)c(N[C@@H]2C[C@H](CO)[C@@H](O)[C@H]2O)n1
3. OC[C@H]1C[C@@H](Nc2nc(N3CCC3)nc(Cl)c2-c2nc3ccccc3s2)[C@H](O)[C@@H]1O
4. Cc1nc(NCC(F)(F)F)nc(N[C@@H]2C[C@H](CO)[C@@H](O)[C@H]2O)c1-c1nc2ccccc2s1

### Response
1: > 5 µM; 2: > 5 µM; 3: 0.5 to 5 µM; 4: < 0.5 µM
